Recorded HC50 at 0.5 h, one value per entry.
Experiment: Hemolytic activity in human RBC assessed as induction of cell lysis measured after 30 mins by microtiter plate method
Format: cell-based, Erythrocyte
Setup Conditions: human red blood cells (erythrocytes)

Item Smiles	HC50 at 0.5 h
CC(C)C[C@@H]1NC(=O)[C@H](CCCN)NC(=O)[C@H](C(C)C)NC(=O)[C@H](CCCN)NC(=O)[C@H](CCCN)NC(=O)[C@H](CCCN)NC(=O)[C@@H](Cc2ccccc2)NC(=O)[C@H](Cc2ccccc2)NC(=O)[C@@H]2CCCN2C(=O)[C@@H](Cc2ccccc2)NC1=O	196 µM
CC(C)C[C@@H]1NC(=O)[C@H](CCCN)NC(=O)[C@H](C(C)C)NC(=O)[C@H](Cc2ccc(O)cc2)NC(=O)[C@H](CCC(N)=O)NC(=O)[C@H](CCCN)NC(=O)[C@@H](Cc2ccccc2)NC(=O)[C@H](Cc2ccccc2)NC(=O)[C@@H]2CCCN2C(=O)[C@@H](Cc2ccccc2)NC1=O	20 µM
CC(C)C[C@@H]1NC(=O)[C@H](CCCN)NC(=O)[C@H](C(C)C)NC(=O)[C@H](CCCN)NC(=O)[C@H](CCC(N)=O)NC(=O)[C@H](CC(N)=O)NC(=O)[C@@H](Cc2ccccc2)NC(=O)[C@H](Cc2ccccc2)NC(=O)[C@@H]2CCCN2C(=O)[C@@H](Cc2ccccc2)NC1=O	43 µM
CC(C)[C@@H]1NC(=O)[C@H](CCCN)NC(=O)[C@H](CCCN)NC(=O)[C@H](CCCN)NC(=O)[C@@H](Cc2ccccc2)NC(=O)[C@H](Cc2ccccc2)NC(=O)[C@@H]2CCCN2C(=O)[C@@H](Cc2ccccc2)NC(=O)[C@H](CCCN)NC(=O)[C@H](CCCN)NC1=O	> 400 µM

Entry source: ChEMBL document CHEMBL4837216
